test: Clearance in Sprague-Dawley rat at 100 mg/kg, po measured upto 480 mins by LC-MS/MS analysis; assay type: ADME, organism-based; details: in vivo
measurement_label: CL/F (mL/min/kg)
Value expressed in mL/min/kg; do not type the unit.

Summary for this compound, COc1cc(OC)c(OC)cc1/C=C/COC(=O)/C=C/c1c(OC)cc(OC)c(OC)c1OC : CL/F is 520

Per the record, COc1cc(OC)c(OC)cc1/C=C/COC(=O)/C=C/c1cc(OC)c(OC)c(OC)c1OC has CL/F of 560

====

Quick list: selectivity ratio at 0.5 h per entry.
assay: Protective index, ratio of TD50 for neurotoxicity against ip dosed Kunming mouse assessed as time remained in rod measured at 0.5 hrs by rotarod test to ED50 for anticonvulsant activity in ip dosed Kunming mouse assessed as reduction in ScPTZ-induced seizure administered 0.5 hrs before ScPTZ stimulation; format: toxicity, organism-based; details: in vivo, read-out: PI

Solved entries:
compound | selectivity ratio at 0.5 h
COc1ccccc1/C=C/C(=O)OC/C=C/c1cc(OC)c(OC)cc1OC | > 4.2
COc1cc(OC)c(OC)cc1/C=C/COC(=O)/C=C/c1cc(OC)c(OC)c(OC)c1OC | > 6.4
COc1cc(OC)c(OC)cc1/C=C/COC(=O)/C=C/c1ccc(Br)cc1 | 5.5
COc1cc(OC)c(/C=C/C(=O)OC/C=C/c2cc(OC)c(OC)cc2OC)c(OC)c1 | > 4.7
COc1ccc(/C=C/C(=O)OC/C=C/c2cc(OC)c(OC)cc2OC)cc1 | > 4.1

// selectivity ratio at 0.5 h lookup, compound = COc1cc(OC)c(OC)cc1/C=C/COC(=O)/C=C/c1ccc(F)cc1 , result: > 5.9

Entry COc1cc(OC)c(OC)cc1/C=C/COC(=O)/C=C/c1c(OC)cc(OC)c(OC)c1OC ; selectivity ratio at 0.5 h = 6.1

selectivity ratio at 0.5 h reported for this compound COc1cc(OC)c(OC)cc1/C=C/COC(=O)/C=C/c1cccc(Br)c1 : 5

Input COC[C@@H](NC(C)=O)C(=O)NCc1ccccc1 [LACOSAMIDE] . Output selectivity ratio at 0.5 h: < 0.1

====

Cmax values for the compounds below.
experiment: Cmax in Sprague-Dawley rat at 100 mg/kg, po measured upto 480 mins by LC-MS/MS analysis; assay type: ADME, organism-based; set-up: dose 100 mg/kg, route oral; conditions: in vivo
# value in ng/mL; strip the unit string

chem_smiles | measurement_label | unit_of_measurement | obs_value
COc1cc(OC)c(OC)cc1/C=C/COC(=O)/C=C/c1c(OC)cc(OC)c(OC)c1OC | Cmax | ng/mL | 3980

# ---- query compound ----
Kindly note the recorded Cmax for COc1cc(OC)c(OC)cc1/C=C/COC(=O)/C=C/c1cc(OC)c(OC)c(OC)c1OC , which is 3770

====

species on record: Homo sapiens; experiment: Inhibition of human LDH5 at 0.5 mM using sodium pyruvate as substrate by UV-VIS spectrophotometry method relative to control
The source made the active and inactive calls. The calls are words filed in the database; no cut-off is given here.
measurement_label: inhibition

chem_smiles | obs_value
COc1ccc(/C=C/C(=O)OC/C=C/c2cc(OC)c(OC)cc2OC)c(OC)c1 | inactive
COc1cc(OC)c(OC)cc1/C=C/COC(=O)/C=C/c1cccc(F)c1 | < 9%
COc1cc(OC)c(OC)cc1/C=C/COC(=O)/C=C/c1c(OC)cc(OC)c(OC)c1OC | 27%
COc1cc(OC)c(OC)cc1/C=C/COC(=O)/C=C/c1ccccc1Cl | < 9%
COc1cc(OC)c(OC)cc1/C=C/COC(=O)/C=C/c1ccccc1C(F)(F)F | < 9%

# inhibition (molecule: COc1cc(OC)c(OC)cc1/C=C/COC(=O)/C=C/c1ccc(F)cc1 ) is < 9%

Memo: COc1ccc(/C=C/C(=O)OC/C=C/c2cc(OC)c(OC)cc2OC)cc1 , reported inhibition: inactive

The value of inhibition measured for the molecule COc1cc(OC)c(OC)cc1/C=C/COC(=O)/C=C/c1c(OC)c(OC)c(OC)c(OC)c1OC turned out to be inactive

inhibition measured on COc1cc(OC)c(OC)cc1/C=C/COC(=O)/C=C/c1ccc(Br)cc1 = < 9%

Please fill in: inhibition reported for COc1cc(OC)c(OC)cc1/C=C/COC(=O)/C=C/c1cc(OC)c(OC)c(OC)c1OC = 15%
